Listing of recorded composite z-score by entry.
Assay: small-molecule microarray binders of probe aNog, primary screen, biochemical, biotinylated probe, 635/667 nm fluorescence (AID 1115);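 further: probe is biotinylated aNog protein used at 0.15 µg/mL for 1 h at 4 C; z-score combines 667 nm fluorescence of each spot with its signal to noise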
Details: higher = more signal
readout_kind: composite z-score

{"compound": "COc1cc(COC(C)=O)ccc1OC(C)=O", "readout_kind": "composite z-score", "endpoint_result": -0.0878}
{"compound": "C=C(COC)/C(=C/C[C@@H](OC(C)=O)c1ccc(OCCO)cc1)c1cnc2ccccc2c1", "readout_kind": "composite z-score", "endpoint_result": -0.1}
{"compound": "CN1C(=O)C2C=CC(C(O)c3ccc([N+](=O)[O-])cc3)N(N3CCCCC3)C2C1=O (stereo not drawn)", "readout_kind": "composite z-score", "endpoint_result": 1.59}

Recorded values, source PubChem BioAssay.
